- subject of test: A2a receptors (Rattus norvegicus, UniProt P30543)
- Construct: Displacement of specific [^3 H]; from tissue; host or cells: rat striatal membranes
- Sequence (P30543 whole entry): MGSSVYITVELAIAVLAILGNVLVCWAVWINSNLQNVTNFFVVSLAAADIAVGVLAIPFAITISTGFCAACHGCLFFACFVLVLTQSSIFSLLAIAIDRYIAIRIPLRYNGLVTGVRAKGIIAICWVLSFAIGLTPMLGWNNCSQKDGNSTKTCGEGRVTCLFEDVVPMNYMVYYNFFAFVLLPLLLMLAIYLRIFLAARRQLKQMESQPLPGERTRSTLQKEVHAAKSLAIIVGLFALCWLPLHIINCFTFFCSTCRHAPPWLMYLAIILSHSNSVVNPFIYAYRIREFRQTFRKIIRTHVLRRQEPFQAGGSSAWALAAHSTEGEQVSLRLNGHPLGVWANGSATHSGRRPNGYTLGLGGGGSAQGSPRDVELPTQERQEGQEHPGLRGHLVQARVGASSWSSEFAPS
- protocol: radioligand binding, displacement of specific [3H]CGS 21680 binding in rat striatal membranes
- assay conditions: Table 11; [3H]CGS 21680, rat striatal membranes; read-out: Ki rA2A
measurement kind: Ki
Remember to follow the number with its unit.

Known Ki results, listed for orientation:
CCOC(=O)C1=C(C)NC(c2ccccc2)=C(C(=O)OCC)C1C=C(c1ccccc1)c1ccccc1 (centres unmarked) [Compound 97] = 8 µM
CCOC(=O)C1=C(C)NC(c2ccccc2)=C(C(=O)OCc2ccccc2)C1C (centres unmarked) [Compound 87] = 3.15 µM
CCOC(=O)C1=C(C)NC(C)=C(C(=O)OCC)C1/C=C/c1ccccc1 [Compound 84] = 9.23 µM

Prompt line: What Ki value was documented for this compound, CCOC(=O)C1=C(C)NC(c2ccccc2)=C(C(=O)OCC)C1CC (centres unmarked) [Compound 86] ?
Response line: 14.5 µM

Prompt line: Now the same for CCOC(=O)c1c(C)nc(-c2ccccc2)c(C(=O)OCC)c1/C=C/c1ccccc1 [A]
Response line: 2.6 µM
